Tested on: BGC-823
Test Protocol: Antiproliferative activity against human BGC-823 cells assessed as inhibition of cell proliferation by MTT assay
Type: functional, cell-based
Experimental Readout: IC50 (nM)
Give the quantity in nM, number only.

Input: Give the value of IC50 reported for the following: O=C1N(Cc2ccccc2)C[C@@H]2[C@@H](c3ccc(Br)cc3)[C@]3(O[C@]12O)C(=O)Nc1ccccc13
Output: 750
